molecular target: human IGF-I receptor (human, UniProt P08069 31-1367); assay: cell-based or functional assay
Sequence (P08069 31-1367 limits assumed): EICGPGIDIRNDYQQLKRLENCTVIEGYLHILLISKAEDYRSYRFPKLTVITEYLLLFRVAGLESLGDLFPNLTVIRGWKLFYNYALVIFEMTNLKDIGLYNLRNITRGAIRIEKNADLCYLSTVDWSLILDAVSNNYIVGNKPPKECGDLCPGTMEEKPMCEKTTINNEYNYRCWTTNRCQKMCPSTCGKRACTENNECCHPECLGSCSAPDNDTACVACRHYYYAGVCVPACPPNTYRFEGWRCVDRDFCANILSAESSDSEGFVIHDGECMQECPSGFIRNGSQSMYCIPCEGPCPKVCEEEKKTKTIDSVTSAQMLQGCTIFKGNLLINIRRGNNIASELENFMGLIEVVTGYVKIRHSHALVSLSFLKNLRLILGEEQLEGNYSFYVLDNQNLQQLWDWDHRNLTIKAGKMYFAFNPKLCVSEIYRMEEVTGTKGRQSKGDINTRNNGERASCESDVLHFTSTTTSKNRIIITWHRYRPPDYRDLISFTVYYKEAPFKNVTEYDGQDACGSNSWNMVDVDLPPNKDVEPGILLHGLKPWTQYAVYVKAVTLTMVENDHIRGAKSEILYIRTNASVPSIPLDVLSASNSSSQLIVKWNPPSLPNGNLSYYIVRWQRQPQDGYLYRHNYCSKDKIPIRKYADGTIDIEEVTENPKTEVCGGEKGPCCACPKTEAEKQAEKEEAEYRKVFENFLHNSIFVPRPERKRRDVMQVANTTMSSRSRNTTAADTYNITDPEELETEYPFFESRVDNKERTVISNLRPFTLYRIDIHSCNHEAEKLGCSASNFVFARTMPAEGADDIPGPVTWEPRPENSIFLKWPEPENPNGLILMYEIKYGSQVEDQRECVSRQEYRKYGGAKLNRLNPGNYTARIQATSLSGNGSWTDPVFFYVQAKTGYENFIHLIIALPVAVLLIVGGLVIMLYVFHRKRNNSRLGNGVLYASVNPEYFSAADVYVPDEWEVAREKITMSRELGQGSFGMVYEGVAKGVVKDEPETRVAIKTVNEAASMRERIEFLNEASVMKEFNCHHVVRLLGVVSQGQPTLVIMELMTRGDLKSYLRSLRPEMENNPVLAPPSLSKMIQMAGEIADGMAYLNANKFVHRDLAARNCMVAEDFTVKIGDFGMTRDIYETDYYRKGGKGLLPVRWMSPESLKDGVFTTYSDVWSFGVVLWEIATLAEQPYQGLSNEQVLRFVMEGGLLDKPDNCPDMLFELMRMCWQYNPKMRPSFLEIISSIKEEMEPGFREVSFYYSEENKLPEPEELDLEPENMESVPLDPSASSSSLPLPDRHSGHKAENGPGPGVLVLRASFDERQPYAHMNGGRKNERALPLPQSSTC
# key: entry, value: Proliferation activity on human myoblast cells (%), 0.5 nM, Experiment 2

{"binder": "anti-IGF-I receptor humanized antibody R11-16D (antibody, human IgG4, V domains shown, also called R11-16D antibody; R11-16VH + R11-16VL-C36S) VH: QVQLVQPGAELVKPGASVKVSCKAPGYTFTSYWMHWVRQAPGQGLEWIGETNPSNSVTNYNEKFKSKATLTVDTSTSTVYMELSSLRSEDTAVYYCTIGRGRGFAYWGQGTLVTVSS VL: DIQMTQSPSSLSASVGDRVTITCRASQNINFWLSWSQQKPGKAPKLLIYKASNLHTGVPSRFSGSGSGTDFTFTISSLQPEDIATYYCLQGQSYPYTFGQGTKLEIK", "observed measurement": "169%"}

Record request: Proliferation activity on human myoblast cells (%), 0.5 nM, Experiment 2 value, item anti-IGF-I receptor humanized antibody R11-16B (antibody, human IgG4, V domains shown, Heavy chain constant region: human IgG4 S228P variant; Expressed in Expi293, protein A purified; also called R11-16B antibody; R11-16VH + R11-16VL-C36Y) VH: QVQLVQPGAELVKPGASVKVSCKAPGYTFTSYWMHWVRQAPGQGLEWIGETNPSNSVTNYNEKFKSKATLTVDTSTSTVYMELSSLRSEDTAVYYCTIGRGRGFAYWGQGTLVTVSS VL: DIQMTQSPSSLSASVGDRVTITCRASQNINFWLSWYQQKPGKAPKLLIYKASNLHTGVPSRFSGSGSGTDFTFTISSLQPEDIATYYCLQGQSYPYTFGQGTKLEIK
164%

What measured Proliferation activity on human myoblast cells (%), 0.5 nM, Experiment 2 goes with anti-IGF-I receptor humanized antibody R11-16C (antibody, human IgG4, V domains shown, also called R11-16C antibody; R11-16VH + R11-16VL-C36A) VH: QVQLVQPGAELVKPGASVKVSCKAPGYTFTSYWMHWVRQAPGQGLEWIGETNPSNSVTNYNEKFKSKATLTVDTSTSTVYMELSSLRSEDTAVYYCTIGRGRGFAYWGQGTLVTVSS VL: DIQMTQSPSSLSASVGDRVTITCRASQNINFWLSWAQQKPGKAPKLLIYKASNLHTGVPSRFSGSGSGTDFTFTISSLQPEDIATYYCLQGQSYPYTFGQGTKLEIK ?
172%

What does the data say about its Proliferation activity on human myoblast cells (%), 0.5 nM, Experiment 2? Entry: anti-IGF-I receptor humanized antibody R11-16F (antibody, human IgG4, V domains shown, also called R11-16F antibody; R11-16VH + R11-16VL-C36) VH: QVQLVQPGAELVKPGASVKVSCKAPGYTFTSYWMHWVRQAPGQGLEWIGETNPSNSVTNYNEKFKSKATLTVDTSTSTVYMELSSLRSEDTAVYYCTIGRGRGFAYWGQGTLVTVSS VL: DIQMTQSPSSLSASVGDRVTITCRASQNINFWLSWCQQKPGKAPKLLIYKASNLHTGVPSRFSGSGSGTDFTFTISSLQPEDIATYYCLQGQSYPYTFGQGTKLEIK
156%
